- assayed target: PIM1 (human) (UniProt P11309)
- Sequence (P11309 whole entry, looked up): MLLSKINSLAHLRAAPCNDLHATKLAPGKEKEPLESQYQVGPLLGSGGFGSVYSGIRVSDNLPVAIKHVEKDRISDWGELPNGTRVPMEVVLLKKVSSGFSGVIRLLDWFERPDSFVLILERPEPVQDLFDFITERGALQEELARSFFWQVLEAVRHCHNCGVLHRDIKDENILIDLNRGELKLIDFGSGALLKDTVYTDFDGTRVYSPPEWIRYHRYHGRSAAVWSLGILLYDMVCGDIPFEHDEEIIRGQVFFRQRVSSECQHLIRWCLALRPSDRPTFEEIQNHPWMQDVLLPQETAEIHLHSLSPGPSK
- test: KINOMEscan competition binding
- condition label: compound 10.0 µM
readout type: kinase still bound, per cent of control
Record the result as a number with its unit.

// query Sample `Cc1cnc(-c2cnc(NCCNc3ccc(C#N)cn3)nc2-c2ccc(Cl)cc2Cl)[nH]1` — what was its kinase still bound, per cent of control?
// result 94%

// query Sample `COc1ccc(CNC(=O)Nc2ncc([N+](=O)[O-])s2)cc1` — what was its kinase still bound, per cent of control?
// result 75%

// query Sample `Cn1cc(C2=C(c3ccc(Cl)cc3Cl)C(=O)NC2=O)c2ccccc21` — what was its kinase still bound, per cent of control?
// result 22%

// query Sample `O=C1Nc2cc(Br)ccc2/C1=C1/Nc2ccccc2/C1=N\O` — what was its kinase still bound, per cent of control?
// result 62%
